Tested on: EsNMT
Assay: N-alkylation substrate screen using EsNMT (LC-MS)
Format: biochemical, Ephedra sinica
Set-up: key: −=no detectable quantities of product N-alkylated compound; Trace, +, ++, +++=increasing relative levels of product N-alkylated compound; Trace, +, ++, +++=increasing relative levels of product N-alkylated compound; Trace, +, ++, +++=increasing relative levels of product N-alkylated compound; Trace, +, ++, +++=increasing relative levels of product N-alkylated compound
Conditions: 25 μg protein, 1 mM substrate, 1 mM SAM, 60 mM HEPES pH 8, 16 hours at 37° C.; relative level of N-alkylated product by LC-MS
Readout: N-alkylation of substrate alkaloid compounds, Enzyme EsNMT

CC[C@@H]1CN2CCc3c([nH]c4cccc(OC)c34)[C@@H]2C[C@@H]1/C(=C\OC)C(=O)OC [Mitragynine, mitragynine]
−
CC1NCCc2cc(O)c(O)cc21 (stereo not drawn) [THQ1]
+
NCCc1c[nH]c2ccccc12 [Tryptamine, tryptamine]
+++

The origin of these recorded values is patent US20210087593A1.
